tested on: HL-60; test: NCI tumour cell line growth inhibition, 48 h
Calls of active or inactive are those of the source. Rule as the data show it: active = GI50 up to about 1.1 µM and inactive = higher.
Respond with a class label; see active, inactive

Worked examples, 3 molecules total:
{"columns": ["molecule", "answer label"],
 "data": [
  ["CCOC(=O)/C(C(=O)c1ccc([N+](=O)[O-])cc1)=C(\\NS(=O)(=O)c1cc(C)c(Cl)cc1[S-])[n+]1ccc(N(C)C)cc1", "inactive"],
  ["CC1=C2c3ccccc3N(S(=O)(=O)c3ccccc3)[C@H]2[C@H](C(=O)N2C3CC4CC[C@@]3(CS2(=O)=O)C4(C)C)CC1 (some centres undefined)", "active"],
  ["c1ccc([S+](c2ccccc2)c2ccc(Sc3ccc([S+](c4ccccc4)c4ccccc4)cc3)cc2)cc1", "inactive"]
]}

(Q) Hey, what did the test say about Cc1cccc2c(=O)c3cccc([C@@H](C)C(=O)O)c3oc12 ?
(A) inactive

(Q) For this molecule, state the assay outcome: OCCOCCO[P+]1(OCCOCCO)n2c3ccc2C(c2ccccc2)=C2C=CC(=N2)C(c2ccccc2)=c2ccc(n21)=C(c1ccccc1)C1=NC(=C3c2ccccc2)C=C1
(A) active

(Q) Hi, sorry to bother you, what did the test record for CCOC(=O)c1csc(NC(=O)CCN(CC)CC)n1 ?
(A) inactive

(Q) // return assay outcome for CC(=O)OCc1ccc(O)c(C=O)c1
(A) inactive

(Q) Which outcome did this test record for the molecule NNC(=O)C(=O)N/N=C1\CCCC1C(=O)CCC(=O)Nc1cccc(Cl)c1 (centres undefined) ?
(A) inactive

(Q) Dear all, I need the recorded test outcome for O=c1c(Cc2c(O)oc3cc(O)ccc3c2=O)c(O)oc2cc(O)ccc12 , thank you.
(A) inactive

* * *

test system: UACC-257; assay: NCI tumour cell line growth inhibition, 48 h
Active and inactive are the calls of the source. Rule as the data show it: active = GI50 up to about 1.1 µM and inactive = higher.
Allowed answers: Yes (active), No (inactive)

{"columns": ["compound", "answer label"],
 "data": [
  ["COc1cc2c(c3c1c(=O)c1ccccc1n3C)C=C([N+](=O)[O-])C(C)(C)O2", "Yes"]
]}

(Q) Short answer needed: outcome of this test for COCCOCC(=O)N(CCn1ccc(NC(c2ccccc2)(c2ccccc2)c2ccccc2)nc1=O)CCn1cnc2nc(N)[nH]c(=O)c21 ?
(A) No

(Q) Could you kindly confirm the outcome this assay logged for C=C(OC1C(C)=C2C(C1OC(=O)CCCCCCC)C(C)(OC(C)=O)CC(OC(=O)CCC)C1(O)C2OC(=O)C1(C)O)/C(C)=C/C (centres undefined) ?
(A) Yes

(Q) What did the test return for CCNC(=S)NNC(=O)C12CC3CC(CC(C3)C1)C2 ?
(A) No

* * *

tested on: TK-10; experiment: NCI tumour cell line growth inhibition, 48 h
Activity calls are given as the source filed them. Cut-off read from the data, not from the text of the source: active = GI50 up to about 1.1 µM and inactive = higher.
Use one of these outcomes when replying: active, inactive

Solved entries (count: 5):
{"columns": ["compound", "answer label"],
 "data": [
  ["Cn1cc(NC(=O)c2cc(NC(=O)CCCCCCC(=O)Nc3cc(C(=O)Nc4cc(C(=O)NCCC(=N)N)n(C)c4)n(C)c3)cn2C)cc1C(=O)NCCC(=N)N", "inactive"],
  ["CCCCCCCCCC[C@H](O)[C@H](O)CC[C@@H](O)[C@H]1CC[C@@H]([C@H]2CC[C@H](CCCCCCC[C@@H](O)CC3=C[C@H](C)OC3=O)O2)O1", "inactive"],
  ["CC(C)N(c1cc2c(cc1F)c(=O)c(C(=O)O)cn2-c1ccc(N2CCN(C)CC2)cn1)C(C)C", "inactive"],
  ["NNC(=O)CC(=O)Nc1ccc(Cl)cc1", "inactive"],
  ["COc1ccc(/C=C\\c2cc(OC)c(OC)c(OC)c2)cc1O [COMBRETASTATIN A4]", "active"]
]}

(Q) For O=S(=O)(N/N=C\c1c2ccccc2[n+]([O-])c2ccccc12)c1ccc(Cl)cc1 , which call appears in the assay record?
(A) inactive

(Q) Identify the outcome logged in this assay for the compound shown: CC(/C=C/C(=O)NO)=C\C(C)C(=O)c1ccc(N(C)C)cc1 (centres undefined)
(A) active

(Q) So what was the verdict on Cc1ccc2nc(-c3ccc(-n4c(C)nc(=O)c(-c5ccc(F)cc5)c4C)cc3)sc2c1 in this test?
(A) inactive

(Q) Please share the test call associated with COc1ccc(C(c2ccc(C(C)C)cc(OC)c2=O)c2ccc(C(C)C)cc(OC)c2=O)cc1 .
(A) inactive

(Q) Per the records of this test, what outcome belongs to COc1cc2c(c(OC)c1OC)-c1ccc(=O)c(O)cc1[C@@H](NC(C)=O)CC2 [COLCHICEINE] ?
(A) inactive

(Q) Any idea what this test logged for C=CCC1(CN(C)C)CC/C(=C\c2ccc(Cl)cc2)C1=O (centres undefined) ?
(A) inactive

(Q) Hello, I am checking results. What call was entered for Cc1cc(/N=C/c2ccc(F)cc2)n(-c2ccccc2)n1 ?
(A) inactive

(Q) Outcome? c1ccc2c3c([nH]c2c1)[C@H]1C2CCCCN2CN1CC3 (some centres undefined)
(A) inactive
